Measured values drawn from patent EP4620949A1 for this set.

Molecular target: human ACKR3 (Homo sapiens, UniProt P25106)
Sequence (P25106 whole entry): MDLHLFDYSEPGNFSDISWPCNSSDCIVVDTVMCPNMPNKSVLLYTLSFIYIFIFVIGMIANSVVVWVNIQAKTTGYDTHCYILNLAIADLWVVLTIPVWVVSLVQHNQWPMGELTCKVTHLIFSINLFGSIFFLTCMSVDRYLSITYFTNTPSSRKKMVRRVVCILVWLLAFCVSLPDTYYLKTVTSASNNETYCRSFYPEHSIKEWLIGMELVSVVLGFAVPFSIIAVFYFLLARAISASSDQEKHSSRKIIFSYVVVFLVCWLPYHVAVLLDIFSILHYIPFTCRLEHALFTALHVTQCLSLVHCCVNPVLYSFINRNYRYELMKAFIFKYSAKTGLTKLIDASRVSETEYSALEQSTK
Sequence (P49407 whole entry partner): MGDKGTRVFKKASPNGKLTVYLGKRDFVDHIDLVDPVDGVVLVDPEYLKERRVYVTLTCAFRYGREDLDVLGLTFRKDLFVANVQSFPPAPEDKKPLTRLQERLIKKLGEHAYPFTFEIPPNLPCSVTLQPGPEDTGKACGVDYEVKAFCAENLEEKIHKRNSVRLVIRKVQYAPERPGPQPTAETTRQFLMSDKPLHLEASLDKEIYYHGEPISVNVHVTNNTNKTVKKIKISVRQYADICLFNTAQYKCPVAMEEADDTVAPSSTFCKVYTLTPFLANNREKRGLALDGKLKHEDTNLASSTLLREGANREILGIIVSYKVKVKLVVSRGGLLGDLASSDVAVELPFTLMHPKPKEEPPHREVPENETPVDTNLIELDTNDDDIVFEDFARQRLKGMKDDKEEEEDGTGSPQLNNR
Experiment: ACKR3 β-Arrestin recruitment assay (NanoLuc complementation, NanoBiT) in HEK293T cells
Conditions: ACKR3; HEK293T cells; average value of three independent experiments
This section presents molecules with their documented EC50 values.
metric name: EC50

molecule="O=C(NCCCN(CCCO)Cc1ccccc1)c1ccc(-c2ccccc2)s1 [Compound 28]" metric_name=EC50 endpoint_value="0.413 µM"
molecule="CN1CCCC1CCNC(=O)c1csc(-c2ccccc2)n1 (stereo not drawn) [Compound 44]" metric_name=EC50 endpoint_value="3 µM"
molecule="CN(CCCNC(=O)c1ccc(Br)s1)Cc1ccccc1 [Compound 2]" metric_name=EC50 endpoint_value="1.62 µM"
molecule="CN(CCCNC(=O)c1ccc(-c2ccncc2)s1)Cc1ccccc1 [Compound 13]" metric_name=EC50 endpoint_value="1.72 µM"
molecule="O=C(Nc1cccc(CNC(=O)c2ccc(-c3ccccc3)s2)c1)c1ccc(F)cc1 [Compound 43]" metric_name=EC50 endpoint_value="3.35 µM"
molecule="CC(C)(C)OC(=O)N1CCN(CCCNC(=O)c2csc(-c3ccccc3)n2)CC1 [Compound 46]" metric_name=EC50 endpoint_value="2.7 µM"
molecule="COc1cc(C(=O)N(CCC2CCCN2C)C/C(C)=C/c2ccccc2F)cc(OC)c1OC (stereo not drawn) [VUF11207, reference compound]" metric_name=EC50 endpoint_value="0.0436 µM"
molecule="CC(C)(C)OC(=O)N1CCN(CCCNCc2csc(-c3ccccc3)n2)CC1 [Compound 47]" metric_name=EC50 endpoint_value="2.4 µM"
molecule="O=C(NCC1CCCN(Cc2ccccc2)C1)c1ccc(-c2ccccc2)s1 (stereo not drawn) [Compound 39]" metric_name=EC50 endpoint_value="1.22 µM"

----------
Biological target: human ACKR3 (Homo sapiens, UniProt P25106)
Construct: expressed in transfected cells; host or cells: HEK293T
Assay: ACKR3 β-Arrestin recruitment assay (NanoLuc complementation, NanoBiT) in HEK293T cells
Type: cell-based
Conditions: efficacy of CXCL12 at 300 nM set as 100%; average of three independent experiments
metric name: Efficacy (Emax) vs CXCL12 (%)

molecule="CN(CCCNC(=O)CSc1ccccc1)Cc1ccccc1 [Compound 7]" target_or_test_system="human ACKR3 (Homo sapiens, UniProt P25106)" endpoint_value=99
molecule="CC(C)(C)OC(=O)N1CCN(CCNC(=O)c2cc3ccccc3s2)CC1 [Compound 49]" target_or_test_system="human ACKR3 (Homo sapiens, UniProt P25106)" endpoint_value=25
molecule="O=C(Nc1cccc(CN2CCCN(C(=O)c3ccc(-c4ccccc4)s3)CC2)c1)c1ccc(F)cc1 [Compound 41]" target_or_test_system="human ACKR3 (Homo sapiens, UniProt P25106)" endpoint_value=50
molecule="O=C(c1ccc(-c2ccccc2)s1)N1CCCN(Cc2ccccc2)CC1 [Compound 40]" target_or_test_system="human ACKR3 (Homo sapiens, UniProt P25106)" endpoint_value=32
molecule="CC(C)(C)NC(=O)C1CCN(CCCNC(=O)c2ccc(-c3ccccc3)s2)CC1 [Compound 37]" target_or_test_system="human ACKR3 (Homo sapiens, UniProt P25106)" endpoint_value=102
molecule="CC(C)(C)OC(=O)N1CCN(CCCNCc2csc(-c3ccccc3)n2)CC1 [Compound 47]" target_or_test_system="human ACKR3 (Homo sapiens, UniProt P25106)" endpoint_value=89
molecule="CC(C)(C)OC(=O)N1CCN(CCCNC(=O)c2csc(-c3ccccc3)n2)CC1 [Compound 46]" target_or_test_system="human ACKR3 (Homo sapiens, UniProt P25106)" endpoint_value=65
molecule="COc1cc(C(=O)N(CCC2CCCN2C)C/C(C)=C/c2ccccc2F)cc(OC)c1OC (centres unmarked) [VUF11207, reference compound]" target_or_test_system="human ACKR3 (Homo sapiens, UniProt P25106)" endpoint_value=95
molecule="O=C(NCc1ccccc1)C1CCN(Cc2csc(-c3ccccc3)n2)CC1 [Compound 48]" target_or_test_system="human ACKR3 (Homo sapiens, UniProt P25106)" endpoint_value=110
molecule="CC(C)(C)OC(=O)N1CCCN(C(=O)c2csc(-c3ccccc3)n2)CC1 [Compound 45]" target_or_test_system="human ACKR3 (Homo sapiens, UniProt P25106)" endpoint_value=29
molecule="CN(CCCNC(=O)c1ccc(-c2ccccc2)s1)Cc1cccc(NC(=O)c2ccc(F)cc2)c1 [Compound 36]" target_or_test_system="human ACKR3 (Homo sapiens, UniProt P25106)" endpoint_value=86
